meta.source: ChEMBL document CHEMBL4765317

Exercise: state measured IC50 for each of the compounds provided.
Hi! Could you send only the number? It should be in µM, unit omitted.

Record COc1ccc2ncc(F)c(CC[C@@]3(O)CO[C@@H]4[C@@H](NCc5ccc6c(c5)OCCO6)CO[C@@H]43)c2n1 has Voltage-gated inwardly rectifying potassium channel KCNH2 (Homo sapiens, UniProt Q12809) IC50 equal to 20

Entry COc1ccc2ncc(F)c(CC[C@H]3OC[C@H](NCc4ccc(Cl)c(Cl)c4)CO3)c2n1 ; assay system Voltage-gated inwardly rectifying potassium channel KCNH2 (Homo sapiens, UniProt Q12809); IC50 recorded at 7.9

// assay Voltage-gated inwardly rectifying potassium channel KCNH2 (Homo sapiens, UniProt Q12809), entry COc1ccc2ncc(F)c(CC[C@@]3(O)CO[C@@H]4[C@@H](NCc5ccc6c(n5)NC(=O)CO6)CO[C@@H]43)c2n1 , IC50 value = 12

Test item COc1ccc2ncc(F)c(CC[C@H]3OC[C@H](NCc4cc5c(cn4)OCCO5)CO3)c2n1 ; Voltage-gated inwardly rectifying potassium channel KCNH2 (Homo sapiens, UniProt Q12809); reported IC50 was 15

Form field IC50 for item COc1ccc2ncc(F)c(CC[C@]3(O)CC[C@@H](NCc4ccc5c(c4)OCCO5)CC3)c2n1 on Voltage-gated inwardly rectifying potassium channel KCNH2 (Homo sapiens, UniProt Q12809): 2.2
